- assayed-system: T1, full-length human GPC3 (human, UniProt P51654 25-554)
- T1 construct: On CHO (DXB11) or SK-HEP-1 (SK-03) transfectants; also used here for the GPC3 on the hepatoma lines HepG2 and HuH-7; also called human glypican 3
- T1 sequence (P51654 25-554 limits assumed): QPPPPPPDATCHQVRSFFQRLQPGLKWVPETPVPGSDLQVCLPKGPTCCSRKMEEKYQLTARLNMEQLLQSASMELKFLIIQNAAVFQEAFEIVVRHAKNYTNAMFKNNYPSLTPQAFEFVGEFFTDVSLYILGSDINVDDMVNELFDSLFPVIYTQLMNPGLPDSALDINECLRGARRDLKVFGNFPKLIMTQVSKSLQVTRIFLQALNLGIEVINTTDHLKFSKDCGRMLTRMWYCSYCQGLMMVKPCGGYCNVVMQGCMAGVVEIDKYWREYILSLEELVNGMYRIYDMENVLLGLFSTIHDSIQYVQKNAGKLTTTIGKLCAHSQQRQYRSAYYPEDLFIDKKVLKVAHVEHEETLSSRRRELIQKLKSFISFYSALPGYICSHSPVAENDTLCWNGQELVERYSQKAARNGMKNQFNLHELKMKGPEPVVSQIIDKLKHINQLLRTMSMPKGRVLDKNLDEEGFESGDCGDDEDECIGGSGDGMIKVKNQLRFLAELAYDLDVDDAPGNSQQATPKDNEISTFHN
- protocol-text: flow cytometry, antibody at 5 µg/mL, HepG2 cells
measured-quantity: FACS X-mode value of the histogram
Give bare numbers.

Sample records with FACS X-mode value of the histogram:
| binder | FACS X-mode value of the histogram |
| --- | --- |
| M1E7 (antibody, human IgG1, kappa, V domains shown, Mouse monoclonal from hybridoma; also called M1E07) VH: EVQLQQSGPELVKPGASVKISCKASGYSFTGYYMHWVKQSPEKSLEWIGEINPSTGGTTYNQKFKAKATLTVDKSSSTAYMQLKSLTSEDSAVYYCARRGGLTGTSFFAYWGQGTLVTVSA VL: DVVMTQTPLSLSVTIGQPASISCKSSQSLLYSNGKTYLNWLQQRPGQAPKHLMYQVSKLDPGIPDRFSGSGSETDFTLKISRVEAEDLGVYYCLQSTYYPLTFGAGTKLELKR | 16 |
| M10D2 (antibody, V domains shown, Mouse monoclonal from hybridoma) VH: QVQLQQPGAELVKPGASVKLSCKASGYTFTSYWMHWVKQRPGQGLEWIGEIDPSDSYTYYNQKFRGKATLTVDKSSNTAYMQLSSLTSEDSAVYYCSRSNLGDGHYRFPAFPYWGQGTLVTVSA VL: DIVLTQSPATLSVTPGDRVSLSCRASHSISNFLHWYPQKSHESPRLLIKYASQSISGIPSRFSGNGSGTDFTLSINSVETEDFGMYFCQQSNIWSLTFGAGTKLELK | 29 |
| M5B9 (antibody, V domains shown, Mouse monoclonal from hybridoma) VH: EVQLQQSGTVLARPGASVKMSCKASGYTFTGYWMHWVKQRPGQGLEWIGAIYPGNSDTNYNQKFKGKAKLTAVTSASTAYMELSSLTNEDAAVYHCTRSGDLTGGLAYWGQGTLVTVSA VL: DIVMTQAAFSNPVTLGTSASISCRSSKSLLHSNGITYLYWFLQKPGQSPQLLIYQMSNLASGVPDRFSSSGSGTDFTLRISRVEAEDVGVYYCAQNLELPYTFGSGTKLEIK | 23 |
| M18D4 (antibody, human IgG1, kappa, V domains shown, Mouse monoclonal from hybridoma) VH: EVQLQQSGTVLARPGASVKMSCKASGYTFTGYWMRWVKQRPGQGLEWIGAIYPGNSDTTYNQKFKGKAKLTAVTSVSTAYMELSSLTNEDSAVYYCSRSGDLTGGFAYWGQGTLVTVST VL: DIVMTQAAFSNPVTLGTSTSISCRSSKSLLHSNGITYLYWYLQKPGQSPQLLIYQMSNLASGVPDRFSSSGSGTDFTLRISRVEAEDVGVYYCAQNLELPYTFGSGTKLEIKR | 20 |
| L9G11 (antibody, V domains shown, Mouse monoclonal from hybridoma) VH: QVQLQQPGAELVKPGASVKLSCKASGYTFTSYWMHWVKQRPGQGLEWIGTIDPSDSETHYNLQFKDTATLTVDKSSSTAYMQLSSLTSEDSAVYYCIRGAFYSSYSYWAWFAYWGQGTLVTVSA VL: DIVLTQSPTSLAVSLGQSVTISCRASESVEYYGTSLMQWYQQKPGQPPKLLIYGASNVESGVPARFSGSGSGTDFSLNIHPVEEDDIAMYFCQQSRKVPYTFGSGTKLEIK | 26 |

Prompt: So what's the measured FACS X-mode value of the histogram for this one? M11F1 (antibody, V domains shown, Mouse monoclonal from hybridoma) VH: QVTLKESGPGILQPSQTLSLTCSFSGFSLSIYGMGVGWIRQPSGKGLEWLANIWWNDDKYYNSALKSRLTISKDTSNNQVFLKISSVDTADTATYYCAQIGYFYFDYWGQGTTLTVSS VL: DVVMTQTPLSLPVSLGDQASISCRSSQSLVHSNGNTYLHWYLQKPGQSPKLLIYKVSNRFSGVPDRFSGSGSGTDFTLKISRVEAEDLGVYFCSQSTHVPWTFGGGTKLEIK
Response: 4
